# SYSTEM_UNDER_TEST: EGFR L858R (Homo sapiens (Human), UniProt P00533, L858R)
# Sequence (P00533 25-1210 L858R): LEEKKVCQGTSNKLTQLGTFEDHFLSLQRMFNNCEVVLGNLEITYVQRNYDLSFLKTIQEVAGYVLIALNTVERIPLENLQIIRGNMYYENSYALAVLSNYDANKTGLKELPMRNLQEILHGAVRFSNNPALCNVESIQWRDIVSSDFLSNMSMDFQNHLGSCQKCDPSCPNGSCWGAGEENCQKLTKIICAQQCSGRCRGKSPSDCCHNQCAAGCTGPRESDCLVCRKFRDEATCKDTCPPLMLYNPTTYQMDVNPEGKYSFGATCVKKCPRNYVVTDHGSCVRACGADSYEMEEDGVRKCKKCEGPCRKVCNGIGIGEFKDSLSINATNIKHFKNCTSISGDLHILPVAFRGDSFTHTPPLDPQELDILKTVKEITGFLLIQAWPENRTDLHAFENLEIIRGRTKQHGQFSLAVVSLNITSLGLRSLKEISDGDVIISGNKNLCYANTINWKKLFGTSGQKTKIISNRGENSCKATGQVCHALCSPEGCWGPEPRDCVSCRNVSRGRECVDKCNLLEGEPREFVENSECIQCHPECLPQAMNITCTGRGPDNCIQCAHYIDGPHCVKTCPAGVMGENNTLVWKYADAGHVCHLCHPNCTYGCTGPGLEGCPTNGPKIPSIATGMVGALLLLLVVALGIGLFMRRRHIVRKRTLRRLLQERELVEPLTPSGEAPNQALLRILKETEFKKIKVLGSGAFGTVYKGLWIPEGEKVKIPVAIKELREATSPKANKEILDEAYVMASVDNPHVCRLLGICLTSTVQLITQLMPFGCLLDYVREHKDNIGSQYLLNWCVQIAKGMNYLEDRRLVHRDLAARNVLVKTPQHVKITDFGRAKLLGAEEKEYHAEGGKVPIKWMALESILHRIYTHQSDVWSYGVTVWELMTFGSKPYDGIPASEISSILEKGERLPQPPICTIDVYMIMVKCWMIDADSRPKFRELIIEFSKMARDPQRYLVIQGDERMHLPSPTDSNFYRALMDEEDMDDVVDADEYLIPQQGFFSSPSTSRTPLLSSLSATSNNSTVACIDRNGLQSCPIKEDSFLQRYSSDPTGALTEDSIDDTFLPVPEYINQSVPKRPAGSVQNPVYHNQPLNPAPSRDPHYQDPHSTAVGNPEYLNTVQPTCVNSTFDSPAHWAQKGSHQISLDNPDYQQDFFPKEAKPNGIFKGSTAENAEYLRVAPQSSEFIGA
# PROTOCOL_DETAILS: HTRF-based EGFR biochemical assay (L858R)
# CONDITION: 100 μM ATP, enzyme 0.1 nM
Where a name gives a salt, the structure may show the parent alone.
PROPERTY_MEASURED: IC50 (nM)

Here's what some known entries look like.
- COMPOUND: "CN1CCC(c2ccc(-c3ccc4c(c3)C(=O)N(C(c3nc5ccccc5[nH]3)c3cc(F)ccc3O)C4)cc2)CC1 (stereo not shown) [Compound 024, hydrochloride]"
  IC50, nM: 2
- COMPOUND: "Cc1c[nH]c([C@@H](c2cc(F)ccc2O)N2Cc3ccc(-c4ccc(C5CCN(C)CC5)cc4)cc3C2=O)n1 (single isomer, unassigned) [Compound 104]"
  IC50, nM: 1
- COMPOUND: "CN1CCC(C#Cc2ccc3c(c2)C(=O)N(C(c2nc4ccccc4[nH]2)c2cc(F)ccc2O)C3)CC1 (stereo not shown) [Compound 011, hydrochloride]"
  IC50, nM: 15

A = CN1CCC(c2ccc(-c3ccc4c(c3)C(=O)N(C(c3nc5cncnc5[nH]3)c3cc(F)ccc3O)C4)cc2)CC1 (stereo not shown) [Compound 018, hydrochloride]
B = CN1CCC(c2ccc(-c3ccc4ncn(C(c5nc6ccccc6[nH]5)c5cc(F)ccc5O)c(=O)c4c3Cl)cc2)CC1 (stereo not shown) [Compound 075, dihydrochloride]
// compare measured IC50, left A , right B , return larger Kindly state the label of the option you pick.
A
(A: 9 nM, B: 1 nM)

A = CN1CCC(c2ccc(-c3ccc4ncn(C(c5nc6ccccc6[nH]5)c5cc(F)ccc5O)c(=O)c4c3C(F)(F)F)cc2)CC1 (stereo not shown) [Compound 076, dihydrochloride]
B = Nc1ccc(C#Cc2ccc3c(c2)C(=O)N(C(c2nc4ccccc4[nH]2)c2cc(F)ccc2O)C3)cn1 (stereo not shown) [Compound 012]
Which record shows the lower IC50: the first, A , or the second, B ? Kindly state the label of the option you pick.
A

---

# SYSTEM_UNDER_TEST: EGFR L858R (Homo sapiens (Human), UniProt P00533, L858R)
# PROTOCOL_DETAILS: HTRF-based EGFR biochemical assay (L858R)
# CONDITION: 100 μM ATP, enzyme 0.1 nM
pIC50: −log10 of the molar value. Counter-ions that a name gives are not always drawn.
PROPERTY_MEASURED: pIC50

- COMPOUND: "CN1CCC(c2ccc(-c3ccc4ncn(C(c5cccc(F)c5)c5nc6ccccc6[nH]5)c(=O)c4c3F)cc2)CC1 (stereo not drawn) [Compound 005, 2,2,2-trifluoroacetate]"
  PROPERTY_MEASURED: "pIC50"
  EXPERIMENTAL_VALUE: 8.10

P = CN1CCC(c2ccc(-c3ccc4c(c3)C(=O)N([C@@H](c3nc5ccccc5[nH]3)c3cc(F)ccc3O)C4)cc2)CC1 (single isomer, unassigned) [Compound 038]
Q = CN1CCC(c2ccc(-c3cc(F)c4cn(C(c5nc6ccccc6[nH]5)c5cc(F)ccc5O)nc4c3)cc2)CC1 (stereo not drawn) [Compound 119, trifluoroacetate]
// compare measured pIC50, left P , right Q , return larger Kindly state the label of the option you pick.
Q
(Q: 7.96, P: 7.74)

---

# SYSTEM_UNDER_TEST: EGFR L858R/T790M (Homo sapiens (Human), UniProt P00533, L858R/T790M)
# Sequence (P00533 25-1210 T790M/L858R): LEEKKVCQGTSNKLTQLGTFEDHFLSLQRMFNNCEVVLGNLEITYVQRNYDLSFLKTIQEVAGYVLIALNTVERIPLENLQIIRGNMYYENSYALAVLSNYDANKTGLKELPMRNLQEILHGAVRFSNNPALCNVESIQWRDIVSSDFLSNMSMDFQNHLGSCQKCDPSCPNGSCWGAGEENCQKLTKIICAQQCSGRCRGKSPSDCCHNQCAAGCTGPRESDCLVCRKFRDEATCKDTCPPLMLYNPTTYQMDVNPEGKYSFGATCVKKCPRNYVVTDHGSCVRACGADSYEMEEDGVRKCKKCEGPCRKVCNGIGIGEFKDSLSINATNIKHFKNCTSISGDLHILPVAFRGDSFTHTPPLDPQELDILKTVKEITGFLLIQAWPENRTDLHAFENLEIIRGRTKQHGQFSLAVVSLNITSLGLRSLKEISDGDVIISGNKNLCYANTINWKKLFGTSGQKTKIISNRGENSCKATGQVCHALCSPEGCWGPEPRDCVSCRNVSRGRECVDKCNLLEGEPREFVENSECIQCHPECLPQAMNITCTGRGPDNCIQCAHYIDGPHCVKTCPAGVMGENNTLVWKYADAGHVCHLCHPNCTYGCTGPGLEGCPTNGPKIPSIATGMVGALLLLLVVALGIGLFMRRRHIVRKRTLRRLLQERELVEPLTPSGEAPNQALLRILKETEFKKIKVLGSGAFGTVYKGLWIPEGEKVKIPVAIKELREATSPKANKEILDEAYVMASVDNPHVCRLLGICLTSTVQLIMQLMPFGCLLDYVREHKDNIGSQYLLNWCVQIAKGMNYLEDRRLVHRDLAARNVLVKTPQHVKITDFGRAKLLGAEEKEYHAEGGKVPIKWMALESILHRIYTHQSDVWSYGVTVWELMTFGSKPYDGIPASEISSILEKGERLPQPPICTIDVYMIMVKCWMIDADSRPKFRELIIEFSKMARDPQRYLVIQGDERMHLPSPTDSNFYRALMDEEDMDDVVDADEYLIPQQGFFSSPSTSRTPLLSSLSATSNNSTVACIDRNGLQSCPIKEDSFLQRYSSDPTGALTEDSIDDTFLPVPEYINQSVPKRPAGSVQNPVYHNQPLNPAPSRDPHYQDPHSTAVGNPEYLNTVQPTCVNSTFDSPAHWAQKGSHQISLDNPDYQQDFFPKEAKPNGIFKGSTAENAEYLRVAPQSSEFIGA
# PROTOCOL_DETAILS: HTRF-based EGFR biochemical assay (L858R/T790M)
# CONDITION: 100 μM ATP, enzyme 0.02 nM
Where a name gives a salt, the structure may show the parent alone.
PROPERTY_MEASURED: IC50 (nM)

- COMPOUND: "CN1CCC(c2ccc(-c3ccc4c(=O)n([C@@H](c5nc6ccccc6[nH]5)c5cc(F)ccc5O)ccc4c3)cc2)CC1 (single isomer, unassigned) [Compound 067]"
  IC50, nM: 4
- COMPOUND: "Cc1c(-c2ccc(C3CCN(C)CC3)cc2)ccc2ncn(C(c3nc4ccccc4[nH]3)c3cc(F)ccc3O)c(=O)c12 (stereo not drawn) [Compound 055, dihydrochloride]"
  IC50, nM: 1
- COMPOUND: "[2H]C(c1nc2ccccc2[nH]1)(c1cc(F)ccc1O)n1ccc2cc(-c3ccc(C4CCN(C)CC4)cc3)cc(F)c2c1=O (stereo not drawn)"
  IC50, nM: 4
- COMPOUND: "CN1CCC(c2ccc(-c3ccc4c(n3)C(=O)N([C@H](c3nc5ccccc5[nH]3)c3cc(F)ccc3O)C4)cc2)CC1 (single isomer, unassigned)"
  IC50, nM: 17
- COMPOUND: "CN1CCC(c2ccc(-c3cc4nn(C(c5nc6ccccc6[nH]5)c5cc(F)ccc5O)cc4cc3F)cc2)CC1 (stereo not drawn)"
  IC50, nM: 6

a = O=C1c2cc(-c3ccc(-c4cn[nH]c4)cc3)ccc2CN1C(c1nc2ccccc2[nH]1)c1cc(F)ccc1O (stereo not drawn)
b = CN1CCC(c2ccc(-c3ccc4ncn(C(c5nc6ccccc6[nH]5)c5cc(F)ccc5O)c(=O)c4n3)cc2)CC1 (stereo not drawn) [Compound 009, 2,2,2-trifluoroacetate]
c = CN1CCC(C#Cc2ccc3c(c2)C(=O)N(C(c2nc4ccccc4[nH]2)c2cc(F)ccc2O)C3)CC1 (stereo not drawn) [Compound 011, hydrochloride]
Please rank these compounds by IC50 in descending order. Please, when replying, give the labels in the order that was requested.
a, c, b

I = CN1CCC(c2ccc(-c3cc(F)c4c(=O)n(C(c5ccccc5)c5nc6ccccc6[nH]5)ccc4c3)cc2)CC1 (stereo not drawn) [Compound 064, dihydrochloride]
II = CN1CCC(c2ccc(-c3ccc4ncn(C(c5nc6ccccc6[nH]5)c5cc(F)ccc5O)c(=O)c4c3)cc2)CC1 (stereo not drawn) [Compound 006, hydrochloride]
Which record shows the lower IC50: the first, I , or the second, II ? Kindly state the label of the option you pick.
II

---

# SYSTEM_UNDER_TEST: EGFR L858R (Homo sapiens (Human), UniProt P00533, L858R)
# PROTOCOL_DETAILS: HTRF-based EGFR biochemical assay (L858R)
# CONDITION: 100 μM ATP, enzyme 0.1 nM
pIC50: −log10 of the molar value. Structures can show the parent of a compound that is named as a salt.
PROPERTY_MEASURED: pIC50

Here's what some known entries look like.
- MOLECULE: "CN1CCC(c2ccc(-c3ccc4c(=O)n(C(c5nc6ccccc6[nH]5)c5cc(F)ccc5O)cc(F)c4c3)cc2)CC1 (stereo not drawn) [Compound 053, hydrochloride]"
  EXPERIMENTAL_VALUE: 8.22
- MOLECULE: "COc1cc2cn(C(c3nc4ccccc4[nH]3)c3cc(F)ccc3O)nc2cc1-c1ccc(C2CCN(C)CC2)cc1 (stereo not drawn)"
  EXPERIMENTAL_VALUE: 8.00
- MOLECULE: "CN1CCC(n2cc(-c3ccc4c(c3)C(=O)N(C(c3nc5ccccc5[nH]3)c3cc(F)ccc3O)C4)cn2)CC1 (stereo not drawn) [Compound 060, hydrochloride]"
  EXPERIMENTAL_VALUE: 7.57
- MOLECULE: "CN1CCC(c2ccc(-c3ccc4c(n3)C(=O)N(C(c3nc5ccccc5[nH]3)c3cc(F)ccc3O)C4)cc2)CC1 (stereo not drawn)"
  EXPERIMENTAL_VALUE: 8.70
- MOLECULE: "CN(C)CCOc1ccc(-c2ccc3c(c2)C(=O)N(C(c2nc4ccccc4[nH]2)c2cc(F)ccc2O)C3)cc1 (stereo not drawn) [Compound 040, hydrochloride]"
  EXPERIMENTAL_VALUE: 8.15

I = O=C1c2cc(-c3ccc(-c4cn[nH]c4)cc3)ccc2CN1C(c1nc2ccccc2[nH]1)c1cc(F)ccc1O (stereo not drawn)
II = CN1CCC(c2ccc(-c3ccc4ncn(C(c5nc6ccccc6[nH]5)c5cc(F)ccc5O)c(=O)c4c3)cc2F)CC1 (stereo not drawn) [Compound 001, hydrochloride]
Which record shows the lower pIC50: the first, I , or the second, II ? Kindly state the label of the option you pick.
I
(I: 7.43, II: 9.00)

A = Cc1c[nH]c([C@@H](c2cc(F)ccc2O)N2Cc3ccc(-c4ccc(C5CCN(C)CC5)cc4)c(F)c3C2=O)n1 (single isomer, unassigned)
B = [2H]C(c1nc2ccccc2[nH]1)(c1cc(F)ccc1O)N1Cc2ccc(-c3ccc(C4CCN(C)CC4)cc3)cc2C1=O (stereo not drawn)
C = CN1CCC(c2ccc(-c3cc4ccn(C(c5nc6ccccc6[nH]5)c5cc(F)ccc5O)c(=O)c4cc3F)cc2)CC1 (stereo not drawn)
D = Nc1ccc(-c2ccc(-c3ccc4c(c3)C(=O)N(C(c3nc5ccccc5[nH]3)c3cc(F)ccc3O)C4)cc2)cn1 (stereo not drawn) [Compound 061, hydrochloride]
Please rank these molecules by pIC50 in descending order. Please, when replying, give the labels in the order that was requested.
A, B, C, D

1 = CN1CCC(c2ccc(-c3ccc4ncn(C(c5nc6ccccc6[nH]5)c5cc(F)ccc5O)c(=O)c4c3F)cc2F)CC1 (stereo not drawn) [Compound 007, hydrochloride]
2 = CN1CCC(c2ccc(-c3ccc4c(=O)n(C(c5nc6ccccc6[nH]5)c5cc(F)ccc5O)ccc4c3)cc2F)CC1 (stereo not drawn) [Compound 109, dihydrochloride]
Which record shows the lower pIC50: the first, 1 , or the second, 2 ? Kindly state the label of the option you pick.
2
(2: 8.40, 1: 9.00)

A = CN1CCC(c2ccc(-c3ccc4c(c3)C(=O)N([C@H](c3nc5ccccc5[nH]3)c3cc(F)ccc3O)C4)cc2)CC1 (single isomer, unassigned) [Compound 023]
B = Cn1cc(-c2ccc(-c3ccc4c(c3)C(=O)N(C(c3nc5ccccc5[nH]3)c3cc(F)ccc3O)C4)cc2)cn1 (stereo not drawn) [Compound 058, dihydrochloride]
// compare measured pIC50, left A , right B , return larger Kindly state the label of the option you pick.
A

1 = Cc1c(-c2ccc(C3CCN(C)CC3)cc2)ccc2ncn(C(c3nc4ccccc4[nH]3)c3cc(F)ccc3O)c(=O)c12 (stereo not drawn) [Compound 055, dihydrochloride]
2 = CN1CCC(c2ccc(-c3ccc4c(c3)C(=O)N(C(c3nc5ccccc5[nH]3)c3cccc(F)c3O)C4)cc2)CC1 (stereo not drawn) [Compound 042, dihydrochloride]
Which record shows the lower pIC50: the first, 1 , or the second, 2 ? Kindly state the label of the option you pick.
2

A = CN1CCC(c2ccc(-c3ccc4ncn(C(c5nc6ccccc6[nH]5)c5cc(F)ccc5O)c(=O)c4c3)cc2)CC1 (stereo not drawn) [Compound 006, hydrochloride]
B = CN1CCC(c2ccc(-c3ccc4c(c3)C(=O)N(C(c3nc5ccccc5[nH]3)c3cc(F)ccc3O)C4)cc2F)CC1 (stereo not drawn) [Compound 017, hydrochloride]
C = CN1CCC(c2ccc(-c3cc(F)c4c(=O)n([C@H](c5nc6ccccc6[nH]5)c5cc(F)ccc5O)ccc4c3)cc2)CC1 (single isomer, unassigned)
Please rank these molecules by pIC50 in descending order. Please, when replying, give the labels in the order that was requested.
B, A, C
(B: 9.00, A: 8.70, C: 7.85)
